System: U251 CNS
Test: NCI-60 one-dose screen, 48 h (100 = growth as untreated, 0 = no growth, -100 = all killed)
Settings: 10 µM unless noted
About 83,000 compounds went through this panel and 20% of them were active in at least one assay; those are over-represented in the sample as a whole.
Label 1 (yes) when growth is at or above 90%; anything below gets 0 (no).

// known answers, use as guide
Cc1ccccc1NC(=O)N/C(N)=N/c1nc(-c2cccc([N+](=O)[O-])c2)cs1 ... 0 (no)
S=C(c1ccc2c(c1)OCO2)N1CCN(c2ccccc2Cl)CC1 ... 1 (yes)
CN(Cc1cnc2nc(N)nc(N)c2n1)c1ccc(C(=O)N[C@@H](CCc2nn[nH]n2)c2nn[nH]n2)cc1 ... 0 (no)
CC1(C)CC(=O)C2=C(C1)N(c1ccc(OC(F)(F)F)cc1)C(N)=C(C#N)C2c1ccc(Cl)cc1 (centres undefined) ... 0 (no)
C=C1C(=O)O[C@H]2[C@H]1CC/C(COC(=O)C(=O)c1cn(C)c3ccc(OC)cc13)=C\CC[C@@]1(C)O[C@@H]21 ... 0 (no)
O=C(c1ccc(Nc2nccc(NCCCCNc3ccnc4cc(Cl)ccc34)n2)cc1)N1CCCCC1 ... 0 (no)

API: the following record is the query input.
State whether the measured growth reaches 90%, counting equality as reaching it, for CCc1ccccc1-n1c(-c2ccc(Cl)cc2)cc(-c2ccc(OC)cc2)c(C#N)c1=O
1 (yes)

###

Tested on: U251 CNS
Experiment: NCI-60 one-dose screen, 48 h (100 = growth as untreated, 0 = no growth, -100 = all killed)
Details: 10 µM unless noted
The panel holds about 83,000 compounds, 20% with a hit somewhere; the sample as a whole holds those more often.
Reported growth maps to class as: L: < 40%; M: ≥ 40% and < 70%; H: ≥ 70%

// known answers, use as guide
C=C(C)[C@@H]1CC[C@]2(C(=O)NC3CCCCC3)CC[C@]3(C)[C@H](CC[C@@H]4[C@@]5(C)CCCNC(C)(C)[C@@H]5CC[C@]43C)[C@@H]12 ... L
Cn1c(=O)c2[nH]c(NN)nc2n(C)c1=O ... H
N/C(=N/N=C/c1ccccc1)N/N=C\c1ccccc1 ... M

Into which bin does this molecule go? O=Cc1c[nH]c2ccc(-c3csc4ccccc34)cc12
L

Into which bin does this molecule go? CN1CCN(CC(=O)Nc2nc(-c3cccc(NS(=O)(=O)c4cccc5c(N(C)C)cccc45)c3)cs2)CC1
M

Into which bin does this molecule go? Cc1cccc(NC(=O)N/C(N)=N/c2nc(C)c(C)s2)c1
M

###

Test system: IGROV1 ovarian
Experiment: NCI-60 one-dose screen, 48 h (100 = growth as untreated, 0 = no growth, -100 = all killed)
Conditions: 10 µM unless noted
Method: Growth inhibition of the IGROV1 human tumor cell line is measured as a screen for anti-cancer activity. Cells are grown in 96 well plates and exposed to the test compound for 48 hours. Compounds are tested at a single concentration, which is 10^-5 M for most compounds. The reported endpoint is percent growth (GI% or GIPRCNT), where numbers from 0 - 100% represent growth inhibition, and numbers from -100% - 0 represent cell death. For example, a value of 40 represents 60% growth inhibition. […]
The panel holds about 83,000 compounds, 20% with a hit somewhere; the sample as a whole holds those more often. The source made the active and inactive calls. Rule for the calls: active = growth percent below 10; inactive = the rest.
readout-name: growth

Could you share which growth value was measured for COC(=O)[C@]12CC[C@@H](C)[C@H](C)[C@@H]1C1=CC[C@@H]3[C@@]4(C)C(C=O)=C[C@@](C)(COC(C)=O)[C@@H]4C(=O)C[C@@]3(C)[C@]1(C)CC2 ?
46.3% (inactive)

Origin of values: PubChem BioAssay (NCI)
